- ASSAY_SUMMARY: Metabolic stability in rat liver microsomes assessed as parent compound remaining at 1 uM measured after 60 mins in presence of NADPH by HPLC-MS/MS analysis
- Type: ADME, Microsome
- TEST_SETTINGS: read-out: Stabilty
MEASUREMENT_TYPE: remaining at 1 h, 1 µM

Query: Give its remaining at 1 h, 1 µM value. Item: Cc1ccc(NC(=O)c2ccc(C)c(C(F)(F)F)c2)cc1C#Cc1nn([C@H]2CC[C@H](O)CC2)c2ncnc(N)c12
Response: > 90%

* * *

- ASSAY_SUMMARY: Toxicity in SCID mouse xenografted with MDA-MB-231 cells assessed as change in body weight at 40 mg/kg, po qd for 21 days and measured every 3 days
- Format: organism-based
- TEST_SETTINGS: in vivo, 504 h, dose 40 mg/kg/day, time 21 day
Would you kindly list Activity for each of these compounds?
// units = %; emit number, no label

Query: If you can, please state the reported Activity value of Cc1ccc(NC(=O)c2cccc(C(F)(F)F)c2)cc1C#Cc1nn(C2CCN(C)CC2)c2ncnc(N)c12 .
Response: -3.1

Query: // query Activity value for entry Cc1ccc(NC(=O)c2cnc(C(C)(C)C)s2)cc1C#Cc1nn(C2CCN(C)CC2)c2ncnc(N)c12
Response: -5.3

Query: Look up Activity for this compound: Cc1ccc(NC(=O)c2ccc(Cl)cc2)cc1C#Cc1nn(C2CCN(C)CC2)c2ncnc(N)c12
Response: -16

Query: What does the record list as Activity for Cc1ccc(NC(=O)c2ccc(Cl)c(C(F)(F)F)c2)cc1C#Cc1nn(C2CCN(C)CC2)c2ncnc(N)c12 ?
Response: -6.7

Query: Request the reported Activity associated with Cc1ccc(NC(=O)c2ccc(C)c(C(F)(F)F)c2)cc1C#Cc1nn(C2CCN(C)CC2)c2ncnc(N)c12
Response: -4.5

* * *

- EXPERIMENTAL_SYSTEM: Platelet-derived growth factor receptor beta (Homo sapiens, UniProt P09619)
- Sequence (P09619 whole entry): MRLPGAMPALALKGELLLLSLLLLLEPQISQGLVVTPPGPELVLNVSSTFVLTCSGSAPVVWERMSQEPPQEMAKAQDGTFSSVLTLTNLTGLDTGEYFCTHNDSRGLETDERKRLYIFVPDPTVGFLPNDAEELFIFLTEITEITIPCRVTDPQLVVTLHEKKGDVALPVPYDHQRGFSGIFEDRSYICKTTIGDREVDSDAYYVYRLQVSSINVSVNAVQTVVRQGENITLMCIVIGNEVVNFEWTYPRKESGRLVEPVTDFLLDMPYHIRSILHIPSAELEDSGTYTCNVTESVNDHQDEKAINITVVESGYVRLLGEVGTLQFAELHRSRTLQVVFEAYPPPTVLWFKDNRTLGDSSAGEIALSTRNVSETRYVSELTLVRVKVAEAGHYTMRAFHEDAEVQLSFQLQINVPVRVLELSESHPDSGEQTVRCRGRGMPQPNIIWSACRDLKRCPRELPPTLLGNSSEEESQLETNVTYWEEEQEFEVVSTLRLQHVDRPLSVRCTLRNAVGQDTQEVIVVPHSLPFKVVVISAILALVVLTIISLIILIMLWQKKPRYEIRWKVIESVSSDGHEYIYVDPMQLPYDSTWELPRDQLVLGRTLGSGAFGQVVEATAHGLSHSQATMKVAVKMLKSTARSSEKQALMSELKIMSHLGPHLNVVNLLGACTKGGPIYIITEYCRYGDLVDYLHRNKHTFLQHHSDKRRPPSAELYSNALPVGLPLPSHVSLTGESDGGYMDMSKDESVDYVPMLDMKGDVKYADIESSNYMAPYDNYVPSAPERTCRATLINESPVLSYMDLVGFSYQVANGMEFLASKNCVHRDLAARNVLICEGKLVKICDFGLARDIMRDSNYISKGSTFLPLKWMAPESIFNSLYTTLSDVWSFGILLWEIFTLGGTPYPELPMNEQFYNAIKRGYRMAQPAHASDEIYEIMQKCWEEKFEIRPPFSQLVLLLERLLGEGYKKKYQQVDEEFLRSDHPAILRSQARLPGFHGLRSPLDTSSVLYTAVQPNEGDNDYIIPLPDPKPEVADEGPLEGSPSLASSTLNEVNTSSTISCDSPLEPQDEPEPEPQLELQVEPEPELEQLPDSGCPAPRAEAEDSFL
- ASSAY_SUMMARY: Inhibition of human recombinant PDGFRbeta (557 to end residues) using poly(Glu, Tyr)4:1 as substrate incubated for 40 mins in presence of [gamma33P-ATP] by radiometric scintillation counting analysis
MEASUREMENT_TYPE: IC50

Query: For Cc1ccc(NC(=O)c2ccc(C)c(C(F)(F)F)c2)cc1C#Cc1nn([C@H]2CC[C@H](O)CC2)c2ncnc(N)c12 , what is its reported IC50?
Response: > 10 µM

* * *

- ASSAY_SUMMARY: AUC (0 to infinity) in Sprague-Dawley rat at 10 mg/kg, po administered via gavage by LC-MS analysis
- Assay type: ADME, organism-based
- Design: time infinity, route oral, dose 10 mg/kg
- TEST_SETTINGS: in vivo
Could you please report measured AUC(0-inf) for the items listed next?
Express your answer in ng·h/mL, writing the number without its unit.

Query: Which value of AUC(0-inf) has been reported for Cc1ccc(NC(=O)c2cccc(C(F)(F)F)c2)cc1C#Cc1nn([C@H]2CC[C@H](O)CC2)c2ncnc(N)c12 in the records?
Response: 976

Query: Name the reported AUC(0-inf) value associated with the compound Cc1ccc(NC(=O)c2ccc(C)c(C(F)(F)F)c2)cc1C#Cc1nn([C@H]2CC[C@H](O)CC2)c2ncnc(N)c12
Response: 2950

* * *

- EXPERIMENTAL_SYSTEM: Fibroblast growth factor receptor 3 (Homo sapiens, UniProt P22607)
- Sequence (P22607 whole entry, the tested form may be a part): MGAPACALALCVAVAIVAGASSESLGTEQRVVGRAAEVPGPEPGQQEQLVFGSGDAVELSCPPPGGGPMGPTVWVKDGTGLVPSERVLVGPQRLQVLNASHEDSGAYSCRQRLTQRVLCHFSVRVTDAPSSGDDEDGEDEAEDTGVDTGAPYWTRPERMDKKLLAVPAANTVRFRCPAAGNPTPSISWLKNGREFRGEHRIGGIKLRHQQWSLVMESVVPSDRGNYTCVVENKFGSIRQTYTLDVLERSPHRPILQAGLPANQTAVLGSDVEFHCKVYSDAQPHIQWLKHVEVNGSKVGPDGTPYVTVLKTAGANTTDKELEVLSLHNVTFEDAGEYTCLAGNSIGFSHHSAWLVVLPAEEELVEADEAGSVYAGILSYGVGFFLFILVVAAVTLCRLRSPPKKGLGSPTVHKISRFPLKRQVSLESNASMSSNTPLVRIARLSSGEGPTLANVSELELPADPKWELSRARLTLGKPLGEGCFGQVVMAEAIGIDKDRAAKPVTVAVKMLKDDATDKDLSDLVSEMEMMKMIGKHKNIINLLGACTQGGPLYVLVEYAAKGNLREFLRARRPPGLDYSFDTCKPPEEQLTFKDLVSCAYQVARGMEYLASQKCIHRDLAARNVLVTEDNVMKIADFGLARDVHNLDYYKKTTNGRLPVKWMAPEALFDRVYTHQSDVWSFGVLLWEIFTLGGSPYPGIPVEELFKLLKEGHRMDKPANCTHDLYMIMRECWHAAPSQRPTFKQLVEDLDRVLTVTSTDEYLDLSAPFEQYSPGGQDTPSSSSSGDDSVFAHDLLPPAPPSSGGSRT
- ASSAY_SUMMARY: Inhibition of human recombinant FGFR3 (447 to 761 residues) using poly(Glu,Tyr)4:1 as substrate incubated for 40 mins in presence of [gamma33P-ATP] by radiometric scintillation counting analysis
MEASUREMENT_TYPE: pIC50
Just the number, please; pIC50 means minus log10 of the concentration in mol/L.

Query: I have this compound here, Cc1ccc(NC(=O)c2ccc(C)c(C(F)(F)F)c2)cc1C#Cc1nn([C@H]2CC[C@H](O)CC2)c2ncnc(N)c12 , and I need its recorded pIC50.
Response: 6.92
